Hey, just so you know, these numbers are from patent US8163898B2.

Molecular target: human LCE (Homo sapiens, UniProt Q9H5J4)
Sequence (Q9H5J4 1-265): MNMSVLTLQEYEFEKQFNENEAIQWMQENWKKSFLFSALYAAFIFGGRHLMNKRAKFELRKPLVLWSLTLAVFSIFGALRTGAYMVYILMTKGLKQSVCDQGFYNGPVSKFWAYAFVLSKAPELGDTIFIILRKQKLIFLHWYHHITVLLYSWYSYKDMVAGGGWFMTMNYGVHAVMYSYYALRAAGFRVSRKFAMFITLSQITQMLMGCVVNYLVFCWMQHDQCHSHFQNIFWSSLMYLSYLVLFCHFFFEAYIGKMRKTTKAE
Test: LCE enzyme activity inhibition test
Format: biochemical
Conditions: human LCE; [14C]-malonyl-CoA and palmitoyl-CoA substrate; 37° C. for 90 minutes; pH 6.5; read-out: IC50
Procedure: Pharmacological Test Example 1 (LCE Enzyme Activity Inhibition Test) A test compound was dissolved in dimethylsulfoxide (DMSO) to 10 mM, and further diluted with DMSO to prepare a 1000-fold concentrated solution, compared with the evaluated concentration. […] Using a microplate scintillation counter (PerkinElmer, TopCount), the radiation activity of the fixed [^14C] was measured and obtained as the enzyme activity. […]
Returns: string. Value is Criterion met if measured IC50 is below 100 nM, and Criterion not met if it is greater than or equal to it.

>>> class_name("CC(C)c1ccc(NC(=O)N2C3CCC2CC(S(=O)(=O)c2ccccc2)C3)cc1 (stereo not shown)")
"Criterion met"
>>> class_name("O=C(Nc1ccc(C(F)(F)F)cn1)N1C2CCC1CC(S(=O)(=O)c1ncccn1)C2 (stereo not shown)")
"Criterion not met"
>>> class_name("CC(C)c1ccc(NC(=O)N2C3CCC2CC(S(=O)(=O)c2ccccn2)C3)cc1 (stereo not shown)")
"Criterion met"
>>> class_name("CC(C)(C)c1ccc(NC(=O)N2C3CCC2CC(S(=O)(=O)c2ccccn2)C3)cc1 (stereo not shown)")
"Criterion not met"
>>> class_name("O=C(Nc1ccc(C(F)(F)F)nc1)N1C2CCC1CC(S(=O)(=O)c1ccccc1)C2 (stereo not shown)")
"Criterion not met"
>>> class_name("O=C(Nc1ccc(C(F)(F)F)cc1)N1C2CCC1CC(S(=O)(=O)c1ccc(F)cc1)C2 (stereo not shown)")
"Criterion not met"
>>> class_name("CC(C)c1ccc(NC(=O)N2C3CCC2CC(S(=O)(=O)c2ncccn2)C3)cc1 (stereo not shown)")
"Criterion met"
